The origin of these recorded values is patent US6362336B1.

Some molecules, each annotated with its measured melting point.

Would you please look over these solved cases?
Q. I am curious: what melting point value has been reported for COc1cc2c(Nc3ccc(C)c(O)c3)ncnc2cc1OCc1cccnc1 [Example 3] ?
A. 258 to 259 °C

Q. I am curious: what melting point value has been reported for COc1cc2c(Nc3cc(O)c(C)cc3F)ncnc2cc1OCCn1ccnc1.Cl ?
A. 195 to 220 °C

Q. I am curious: what melting point value has been reported for COc1cc2c(Nc3ccc(Cl)cc3F)ncnc2cc1OCc1ccnc(Br)c1 [Example 59] ?
A. 210 to 212 °C

Q. I am curious: what melting point value has been reported for COc1cc2c(Nc3ccc(Cl)cc3F)ncnc2cc1OCCCn1ccc(=O)cc1 [Example 19] ?
A. > 250 °C

Q. I am curious: what melting point value has been reported for COc1cc2c(Nc3ccc(C)c(O)c3)ncnc2cc1OCc1c(C)noc1C.Cl ?
A. 252 to 254 °C

Further cases:
Q. I am curious: what melting point value has been reported for COc1cc2c(Nc3ccc(C)c(O)c3)ncnc2cc1OCc1ccncn1 [Example 5] ?
A. 290 to 291 °C

Q. I am curious: what melting point value has been reported for COc1cc2c(Nc3ccc(C)c(O)c3)ncnc2cc1OCc1ccccn1.Cl ?
A. 236 to 238 °C

Q. I am curious: what melting point value has been reported for COc1cc2c(Nc3ccc(Cl)cc3F)ncnc2cc1OCc1ccccn1 [Example 39] ?
A. 215 to 218 °C

Q. I am curious: what melting point value has been reported for COc1cc2c(Nc3ccc(C)c(O)c3)ncnc2cc1OCc1csc(NC(C)=O)n1.Cl ?
A. 202 to 204 °C

Q. I am curious: what melting point value has been reported for COc1cc2c(Nc3ccc(Cl)cc3F)ncnc2cc1OCc1csc(NC(C)=O)n1.Cl ?
A. 194 to 202 °C

====

OUTCOME MEASURE: melting point

Q. I am curious: what melting point value has been reported for COc1cc2c(Nc3ccc(Cl)cc3F)ncnc2cc1OCc1ccnc(C)c1 [Example 63] ?
A. 221 to 224 °C

Q. I am curious: what melting point value has been reported for COc1cc2c(Nc3ccc(Cl)cc3F)ncnc2cc1OCCN(C)c1ncccn1.Cl ?
A. 194 to 196 °C

Q. I am curious: what melting point value has been reported for COc1cc2c(Nc3ccc(Cl)cc3F)ncnc2cc1OCCOc1ccncc1 [Example 17] ?
A. 200 to 202 °C

Q. I am curious: what melting point value has been reported for COc1cc2c(Nc3ccc(C)c(O)c3)ncnc2cc1OCc1ccsc1.Cl ?
A. 246 to 248 °C

Q. I am curious: what melting point value has been reported for COc1cc2c(Nc3ccc(Cl)cc3F)ncnc2cc1OCc1cc(Cl)[nH]c(=O)c1.Cl ?
A. 271 to 273 °C (dec.)

Q. I am curious: what melting point value has been reported for COc1cc2c(Nc3ccc(C)c(O)c3)ncnc2cc1OCc1ccncc1.Cl ?
A. 249 to 251 °C

Q. I am curious: what melting point value has been reported for COc1cc2c(Nc3cc(O)c(C)cc3F)ncnc2cc1OCc1ccccc1.Cl ?
A. 294 to 298 °C

Q. I am curious: what melting point value has been reported for COc1cc2c(Nc3ccc(Cl)cc3F)ncnc2cc1OCCSc1ccncc1 [Example 68] ?
A. 182 to 186 °C

Further cases:
Q. I am curious: what melting point value has been reported for COc1cc2c(Nc3ccc(Cl)cc3F)ncnc2cc1OCCCN(C)c1ccncc1.Cl ?
A. 243 to 248 °C

Q. I am curious: what melting point value has been reported for COc1cc(COc2cc3ncnc(Nc4ccc(Cl)cc4F)c3cc2OC)ccn1 [Example 62] ?
A. 202 to 204 °C

Q. I am curious: what melting point value has been reported for CCOC(=O)c1cc(COc2cc3ncnc(Nc4ccc(Cl)cc4F)c3cc2OC)ccn1 [Example 93] ?
A. 212 to 214 °C

Q. I am curious: what melting point value has been reported for COc1cc2c(Nc3ccc(C)c(O)c3)ncnc2cc1OCCCc1ccncc1.Cl ?
A. 278 to 282 °C

Q. I am curious: what melting point value has been reported for COc1cc2c(Nc3ccc(Cl)cc3F)ncnc2cc1OCCc1ccncc1.Cl ?
A. 189 to 191 °C

Q. I am curious: what melting point value has been reported for COc1cc2c(Nc3ccc(Cl)cc3F)ncnc2cc1OCCCn1ccccc1=O [Example 65] ?
A. 216 to 218 °C

Q. I am curious: what melting point value has been reported for COc1cc2c(Nc3cc(O)c(C)cc3F)ncnc2cc1OCc1ccncc1.Cl ?
A. 257 to 260 °C
